molecular target: mTORC2 (Homo sapiens, UniProt P42345+P62942); construct: endogenous in cells; host or cells: PC3 cells (human prostate adenocarcinoma); assay: Inhibition assay for mTORC2: phosphorylation of pAkt at Ser473, AlphaLISA in PC3 cells; type: cell-based; conditions: read-out: pIC50 mTORC2 (converted)
Sequence (P62942 2-108 limits assumed, other chains not shown): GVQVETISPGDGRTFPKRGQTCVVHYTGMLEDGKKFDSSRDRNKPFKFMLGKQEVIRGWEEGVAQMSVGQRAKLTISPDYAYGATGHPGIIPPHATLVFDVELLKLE
VALUE_TYPE: IC50

MOLECULE	MEAS_VALUE
CO[C@@H]1C[C@H](C[C@@H](C)[C@@H]2CC(=O)[C@H](C)/C=C(\C)[C@@H](O)[C@@H](OC)C(=O)[C@H](C)C[C@H](C)/C=C/C=C/C=C(\C)C(OCCCO)C[C@@H]3CC[C@@H](C)[C@@](O)(O3)C(=O)C(=O)N3CCCCC3C(=O)O2)CC[C@H]1O (stereo partly shown) [Compound 210]	< 1 µM
CO[C@@H]1C[C@H](C[C@@H](C)[C@@H]2CC(=O)[C@H](C)/C=C(\C)[C@@H](O)[C@@H](OC)C(=O)[C@H](C)C[C@H](C)/C=C/C=C/C=C(\C)C(OCC3CCOCC3)C[C@@H]3CC[C@@H](C)[C@@](O)(O3)C(=O)C(=O)N3CCCCC3C(=O)O2)CC[C@H]1O (stereo partly shown) [Compound 226]	> 10 µM
COC1C[C@@H]2CC[C@@H](C)[C@@](O)(O2)C(=O)C(=O)N2CCCCC2C(=O)O[C@H]([C@H](C)C[C@@H]2CC[C@@H](OC(=O)NCCCN(CCO)CCO)[C@H](OC)C2)CC(=O)[C@H](C)/C=C(\C)[C@@H](O)[C@@H](OC)C(=O)[C@H](C)C[C@H](C)/C=C/C=C/C=C/1C (stereo partly shown) [Compound 358]	< 1 µM

Here is another molecule to look at.
Which IC50 is reported for this molecule? COC1CC2CCC(C)C(O)(O2)C(=O)C(=O)N2CCCCC2C(=O)OC(C(C)CC2CCC(OCCc3ccccc3)C(OC)C2)CC(=O)C(C)C=C(C)C(O)C(OC)C(=O)C(C)CC(C)C=CC=CC=C1C (stereo not shown) [Compound 348]
< 1 µM
